Activity reference
System: SH-SY5Y
Experiment: Neuroprotective activity against okadaic acid-induced cytotoxicity in human SH-SY5Y cells assessed as protection against cell death at 1 uM incubated for 24 hrs by MTT assay relative to control
Assay type: functional
The reply should contain only the number, in %.

Observe how each entry below is paired with its result.
>  <compound>
OC[C@H](O)C[C@@H]1C=C[C@@H]2OC(c3ccccc3)OC[C@H]2O1 (some centres undefined)

>  <tested-on>
SH-SY5Y

>  <unit-name>
%

>  <Activity>
40

$$$$
>  <compound>
CC1(C)OC[C@H]2O[C@H](CCCO)C=C[C@@H]2O1

>  <tested-on>
SH-SY5Y

>  <unit-name>
%

>  <Activity>
81

$$$$
>  <compound>
CC1(C)OC[C@H]2O[C@H](CCCOC(=O)c3ccccc3)C=C[C@@H]2O1

>  <tested-on>
SH-SY5Y

>  <unit-name>
%

>  <Activity>
69

$$$$
>  <compound>
C=CC[C@@H]1C=C[C@@H]2OC(C)(C)OC[C@H]2O1

>  <tested-on>
SH-SY5Y

>  <unit-name>
%

>  <Activity>
50

$$$$
>  <compound>
CC1(C)OC[C@H]2O[C@H](C[C@H](O)CO)C=C[C@@H]2O1

>  <tested-on>
SH-SY5Y

>  <unit-name>
%

>  <Activity>
72

$$$$
>  <compound>
C=CC[C@@H]1C=C[C@@H]2OC(c3ccccc3)OC[C@H]2O1 (some centres undefined)

>  <tested-on>
SH-SY5Y

>  <unit-name>
%

>  <Activity>
80

$$$$
>  <compound>
CC12CC3CC(C)(C1)CC(N)(C3)C2 [MEMANTINE]

>  <tested-on>
SH-SY5Y

>  <unit-name>
%

>  <Activity>
60

$$$$
>  <compound>
C=CC[C@@H]1C=C[C@H](OC(C)=O)[C@@H](COC(C)=O)O1

>  <tested-on>
SH-SY5Y

>  <unit-name>
%

>  <Activity>
84

$$$$

Activity measured on CC1(C)OC[C@H]2O[C@H](C[C@@H](O)CO)C=C[C@@H]2O1 = 45

Entry under test: O=C(OCCC[C@@H]1C=C[C@H](O)[C@@H](CO)O1)c1ccccc1 . Its Activity was 20

====

System: SH-SY5Y
Experiment: Neuroprotective activity against okadaic acid-induced cytotoxicity in human SH-SY5Y cells assessed as protection against cell death at 1 uM incubated for 24 hrs by MTT assay relative to control
Type: functional
Activity for assorted compounds
Express the result in % but write the number alone.

The compound listed as OCCC[C@@H]1C=C[C@@H]2OC(c3ccccc3)OC[C@H]2O1 (some centres undefined) shows Activity equal to 82

GET /value?item= O=C(OCCC[C@@H]1C=C[C@@H]2OC(c3ccccc3)OC[C@H]2O1)c1ccccc1 (some centres undefined) &field=Activity returns 72

The measured Activity associated with OC[C@@H](O)C[C@@H]1C=C[C@@H]2OC(c3ccccc3)OC[C@H]2O1 (some centres undefined) reads 73

Recorded Activity (compound C=CC[C@@H]1C=C[C@H](O)[C@@H](CO)O1 ): 72

Measured values drawn from ChEMBL document CHEMBL5346913 for this set.
